assay protocol: Pharmacokinetic study after oral administration
Assay type: in vivo
stated conditions: rat, plasma; oral 20 mg/Kg, female Wistar rats; read-out: β (elimination rate constant) (converted)
readout name: k el (s⁻¹)
Give just the numeric value; s⁻¹ need not be written.

Exercise: Entry CS(=O)(=O)c1ccc(-c2cc(C(=O)O)c3cccc(C(=O)c4ccccc4)c3n2)cc1 : reported k el = ?
Solution: 5.28e-05

====

assay protocol: Pharmacokinetic study after oral administration
Format: in vivo
stated conditions: rat, plasma; oral 20 mg/Kg, female Wistar rats
readout name: Cmax

Exercise: Entry CS(=O)(=O)c1ccc(-c2cc(C(=O)O)c3cccc(C(=O)c4ccccc4)c3n2)cc1 : reported Cmax = ?
Solution: 16500 ng/mL
